Biological target: human TRPV4 (Homo sapiens)
Construct: host or cells: tetracycline-inducible Flp-In T-REx 293 cells
Sequence (Q9HBA0 whole entry): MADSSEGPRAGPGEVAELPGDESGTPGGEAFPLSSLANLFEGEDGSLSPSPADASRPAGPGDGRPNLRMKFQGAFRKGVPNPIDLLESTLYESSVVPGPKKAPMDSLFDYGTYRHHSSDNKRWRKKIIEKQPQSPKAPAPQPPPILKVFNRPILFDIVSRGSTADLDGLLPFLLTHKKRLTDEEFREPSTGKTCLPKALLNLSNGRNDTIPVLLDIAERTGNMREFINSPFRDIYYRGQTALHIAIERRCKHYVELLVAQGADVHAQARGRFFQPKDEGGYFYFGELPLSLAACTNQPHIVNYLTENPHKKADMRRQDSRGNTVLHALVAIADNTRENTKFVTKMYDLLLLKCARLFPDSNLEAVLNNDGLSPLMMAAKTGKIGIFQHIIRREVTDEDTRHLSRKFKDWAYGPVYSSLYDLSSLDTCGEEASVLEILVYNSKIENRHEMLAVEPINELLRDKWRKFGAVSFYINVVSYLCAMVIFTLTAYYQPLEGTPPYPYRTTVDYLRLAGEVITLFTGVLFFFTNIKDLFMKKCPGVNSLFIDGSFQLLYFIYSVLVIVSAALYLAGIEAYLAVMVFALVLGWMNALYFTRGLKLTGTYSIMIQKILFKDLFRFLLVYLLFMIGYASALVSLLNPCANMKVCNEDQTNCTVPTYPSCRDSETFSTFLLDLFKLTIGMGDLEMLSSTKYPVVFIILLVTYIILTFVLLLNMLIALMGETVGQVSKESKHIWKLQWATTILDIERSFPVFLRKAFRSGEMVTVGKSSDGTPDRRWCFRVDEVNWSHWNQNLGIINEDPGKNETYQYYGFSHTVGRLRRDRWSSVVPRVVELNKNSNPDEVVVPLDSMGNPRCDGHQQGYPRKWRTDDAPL
Experiment: Hypotonicity-induced Ca2+ influx (Fluo-4, FDSS)
Type: cell-based
Conditions: Flp-In T-REx 293 cells expressing human TRPV4, examples listed under heading 'Human IC50<50 nM'
This listing pairs compounds with measured IC50.
Measure Name: IC50

1) O=C([C@H](O)c1cccc(C(F)(F)F)c1)N1CCCc2nc(C3(c4cccc(C5=CCN(C(=O)N6CCCCC6)CC5)c4)CC3)[nH]c(=O)c2C1 :: < 50 nM
2) CN(C)C(=O)c1cccc(-c2cccc(C3(c4nc5c(c(=O)[nH]4)CN(C(=O)[C@H](O)c4cccc(C(F)(F)F)c4)CCC5)CC3)c2)c1 :: < 50 nM
3) O=C([C@H](O)c1cccc(Cl)c1)N1CCCc2nc(C3(c4cccc(-c5ccc(F)cc5)c4)CC3)[nH]c(=O)c2C1 :: < 50 nM
